system: LOC_OS02G14120-cb001; assay: thermal shift delta Tm vs DMSO control; higher = stronger stabilization (binding); details: 12.5 µM; protein concentration 2 µM;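 further: purified Escherichia coli-expressed rice kinase domain construct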
Counter-ions that a name gives are not always drawn.
Output Yes for thermal shift delta Tm not less than 0.9 °C; output No otherwise.

>  <COMPOUND>
CC#CC(=O)N1CC[C@@H](n2c(=O)n(-c3ccc(Oc4ccccc4)cc3)c3c(N)ncnc32)C1 [ONO-4059 (GS-4059) hydrochloride]

>  <LABEL>
No

$$$$
>  <COMPOUND>
CN1CC(O)C2=C/C(=N/NC(N)=O)C(=O)C=C21 (centres undefined) [Carbazochrome]

>  <LABEL>
No

$$$$
>  <COMPOUND>
CC(C)n1ncnc1-c1cn2c(n1)-c1ccc(O[C@@H](C)C(N)=O)cc1OCC2

>  <LABEL>
No

$$$$
>  <COMPOUND>
CC(C)(C)c1nc(-c2ccc(NC(=O)Nc3cccc(C(F)(F)F)c3)c3ccccc23)c2c(N)nccn12 [kira6]

>  <LABEL>
Yes

$$$$
>  <COMPOUND>
CS(=O)(=O)N1CCc2c(-c3cnc(N)nc3)nc(N3CCOCC3)nc21

>  <LABEL>
Yes

$$$$
>  <COMPOUND>
COc1cc2ncc(-c3ccccc3)nc2cc1OC [Tyrphostin AG 1296]

>  <LABEL>
Yes

$$$$
>  <COMPOUND>
C=CC(=O)Nc1ccc(CN2C(=O)N(c3cc(OC)cc(OC)c3)Cc3cnc(Nc4ccc(N5CCN(C)CC5)cc4)nc32)cc1

>  <LABEL>
Yes

$$$$
>  <COMPOUND>
COc1cc(Nc2ncc(F)c(Nc3ccc4c(n3)NC(=O)C(C)(C)O4)n2)cc(OC)c1OC [R406 (free base)]

>  <LABEL>
Yes

$$$$
>  <COMPOUND>
O=c1c(O)c(-c2cc(O)c(O)c(O)c2)oc2cc(O)cc(O)c12 [Myricetin]

>  <LABEL>
Yes

$$$$
>  <COMPOUND>
O=c1cc(N2CCOCC2)oc2c(-c3cccc4c3sc3ccccc34)cccc12

>  <LABEL>
No

$$$$
>  <COMPOUND>
Cc1cc(Nc2cc(N3CCN(C)CC3)nc(/C=C/c3ccccc3)n2)n[nH]1 [ENMD-2076 L-(+)-Tartaric acid]

>  <LABEL>
Yes

$$$$
>  <COMPOUND>
COc1cc(N2CCC(N)CC2)ccc1Nc1ncc(Cl)c(-c2c[nH]c3ccccc23)n1

>  <LABEL>
Yes

$$$$
>  <COMPOUND>
S=C(NCc1ccc2c(c1)OCO2)N1CCN(c2ncnc3c2oc2ccccc23)CC1 [Amuvatinib (MP-470)]

>  <LABEL>
No

$$$$
>  <COMPOUND>
COc1ccc(Oc2cc(NCCC(F)(F)F)c3ncc(-c4ccc(C(=O)NC5CC5)c(C)c4)n3n2)c(F)c1F

>  <LABEL>
No

$$$$
>  <COMPOUND>
CN(c1ccccc1CNc1nc(Nc2ccc3c(c2)CC(=O)N3)ncc1C(F)(F)F)S(C)(=O)=O

>  <LABEL>
Yes

$$$$
>  <COMPOUND>
COc1cc(-c2cc(-c3ccc(N4CCNCC4)cc3)cnc2C)cc(OC)c1OC

>  <LABEL>
Yes

$$$$
>  <COMPOUND>
COc1cc(C(=O)N2CCC(N3CCN(C)CC3)CC2)ccc1Nc1ncc2c(n1)N(C)c1ccccc1C(=O)N2C

>  <LABEL>
Yes

$$$$
>  <COMPOUND>
Cc1ncc(CCCN(C)C)cc1Nc1ncc2c(n1)-c1ccc(C(F)(F)F)cc1NC(=S)C2

>  <LABEL>
No

$$$$
>  <COMPOUND>
CN1CCN(S(=O)(=O)c2ccc(-c3cnc(N)c(C(=O)Nc4cccnc4)n3)cc2)CC1

>  <LABEL>
Yes

$$$$
>  <COMPOUND>
O=C1Nc2ccc(I)cc2/C1=C/c1cc(Br)c(O)c(Br)c1

>  <LABEL>
Yes

$$$$
>  <COMPOUND>
COc1cc(N2CCC(N(C)C)CC2)ccc1Nc1ncc(Cl)c(Nc2ccccc2P(C)(C)=O)n1

>  <LABEL>
Yes

$$$$
>  <COMPOUND>
CS(=O)(=O)c1cccc(CNc2nc(Nc3ccc4c(c3)CCC(=O)N4)ncc2C(F)(F)F)c1

>  <LABEL>
Yes

$$$$
>  <COMPOUND>
CN1CCN(c2nc(C3=C(c4c[nH]c5ccccc45)C(=O)NC3=O)c3ccccc3n2)CC1 [Sotrastaurin]

>  <LABEL>
Yes

$$$$
>  <COMPOUND>
CCN(CC)CCCC(C)Nc1nc(C)cc(Nc2ccc3nc(C)cc(N)c3c2)n1 (centres undefined)

>  <LABEL>
Yes

$$$$
>  <COMPOUND>
N#Cc1cccc(-c2c[nH]c3ncnc(N4CCOCC4)c23)c1

>  <LABEL>
Yes

$$$$
>  <COMPOUND>
COc1ccc2[nH]cc(/C=C3\C(=O)Nc4ccc(NC(=O)CCN5CCCCC5)cc43)c2c1

>  <LABEL>
Yes

$$$$
>  <COMPOUND>
O=C(NCc1ccccc1)c1csc(Nc2ccncn2)n1 [Thiazovivin]

>  <LABEL>
No

$$$$
>  <COMPOUND>
COc1cc(OC)c(C=C2C(=O)Nc3ccccc32)c(OC)c1

>  <LABEL>
Yes

$$$$
>  <COMPOUND>
Cc1cc(Nc2nc(N[C@@H](C)c3ccc(F)cc3)c(C#N)cc2F)n[nH]1

>  <LABEL>
Yes

$$$$

Values were extracted from the supplement of paper PMC9694430.
